Tested on: MDA-MB-435
Assay: NCI tumour cell line growth inhibition, 48 h
Reported values of TGI for individual entries

The cases that follow already have their TGI on record.
COMPOUND	RESULT
C=C1C(OC2O[C@@H]3O[C@@]4(C)CC[C@H]5[C@H](C)CC[C@@H](C2=C)[C@@]35O4)O[C@@H]2O[C@@]3(C)CC[C@H]4[C@H](C)CC[C@@H]1[C@@]24O3 (stereo not given in full)	> 50 µM
O=P(O)(O)c1ccccc1Oc1ccccc1	> 100 µM

Specify reported TGI for the compound shown: Cc1cc(S(=O)(=O)/N=C(/C(=C=[N-])C#N)[n+]2ccc(N(C)C)cc2)c(SCC(=O)O)cc1Cl
> 100 µM

Could you please provide reported TGI for CC1=NN(c2nc(N)nc(-c3sccc3N)n2)C(C)(C)C1 ? Thanks!
> 100 µM

Please supply the value of reported TGI for the item C[C@]12CCC(=O)[C@@H](CCC3=CC(=O)C=CC3=O)[C@@H]1CCC2=O
> 56.2 µM

###

Examples of compounds with documented TGI follow.
System: NCI-H460 lung
Experiment: NCI tumour cell line growth inhibition, 48 h

These recorded examples may help you get a feel for the data.
SMILES DATA	TGI
C=C1C(=O)O[C@H]2[C@H]1CC/C(COC(=O)c1cc3cc(Cl)ccc3[nH]1)=C\CC[C@@]1(C)O[C@@H]21	3.53 µM
CCn1c(-c2nonc2N)nc2c(C#CC(C)(C)O)nc(OCCNC)cc21	> 25 µM

Then there is this compound:
Identify measured TGI associated with N#C/C(C(=O)Nc1ccc(Cl)cc1)=C(/N)N1CCCC1
> 100 µM

###

Property: TGI; scope: individual compounds
Test system: MALME-3M melanoma
Test: NCI tumour cell line growth inhibition, 48 h

COMPOUND	PARAMETER	RESULT
COC(=O)C(=O)C(C(=O)C(=O)Nc1cccc(C(C)=O)c1)c1nc2ccccc2[nH]c1=O (stereo not drawn)	TGI	> 100 µM
CC(=O)NC(CCCCNC(=O)NCCCl)C(=O)NCc1ccccc1 (stereo not drawn)	TGI	> 100 µM

Here's the next entry for you.
Complete the entry with TGI for CN1C(=O)N(C)C2C1NN=c1s/c(=C\c3ccc(F)cc3)c(=O)n12 (stereo not drawn)
> 100 µM

###

Recorded TGI, one value per entry.
System: MOLT-4 leukemia
Experiment: NCI tumour cell line growth inhibition, 48 h

Recorded results for 2 compounds are shown here.
COMPOUND	TGI
COc1cc(CC(C)NC(C)=O)cc(OC)c1 (stereo not drawn)	> 100 µM
Cc1cc(S(=O)(=O)NC#N)c(S/C(=N\Nc2ccc([N+](=O)[O-])cc2)c2ccc(Cl)cc2)cc1Cl	> 100 µM

Let us move to another entry and its TGI.
Tell me TGI reported for CCCCC1=C(C(=O)N2CCOCC2)C2(OCCO2)C1=O
> 100 µM

###

Test system: K-562 leukemia
Experiment: NCI tumour cell line growth inhibition, 48 h; in the data active means GI50 below about 0.43 µM; inactive means the rest
One label from this list, please: active, inactive

SMILES DATA	LABEL
CNCCn1c(=O)c2cc(OC)c(OC)cc2c2ccc3cc4c(cc3c21)OCO4	active
Nc1ccccc1C#C/C=C\C#Cc1ccccc1[N+](=O)[O-]	inactive

Tell me the assay call for Cc1cc2c(cc1C)N(C(=O)CCl)CCN2C(=O)CCl please.
active

I would be grateful if you could indicate the recorded call for CCOC(=O)/C=C/C1=C(c2cccs2)c2ccccc2CC1 .
inactive

What outcome does the record of this test show for CN(C)CCCNC(=O)c1ccc2c(c1)oc1cc3ccccc3c(=O)n12 ?
inactive
